Recorded values, source patent US7994209B2.

- tested-on: UniProtKB P23975
- experimental-protocol: hNET neurotransmitter uptake assay (3H-NE), Assay 2
- Format: cell-based
- Parameters: expressed in transfected cells; host or cells: HEK-293
- condition-details: norepinephrine reuptake inhibition, 3H-NE uptake, HEK-293 hNET cells (values without asterisk); read-out: NET pIC50 (converted)
- Protocol: Cells were harvested by centrifugation at 1100 rpm for 5 minutes, washed once by resuspension in PBS, then centrifuged. The supernatant was discarded and the cell pellet resuspended, by gentle trituration, in room temperature Krebs-Ringer bicarbonate buffer containing HEPES (10 mM), CaCl2 (2.2 mM), ascorbic acid (200 μM) and pargyline (200 μM), pH 7.4. […]
Recorded IC50, one value per entry.

# example entries with known answers
Cc1cccc(O[C@H](C(C)C)[C@H]2CCNC2)c1C : ≤ 0.01 µM
Fc1cc(O[C@@H](C2CC2)[C@H]2CCNC2)ccc1Cl : ≤ 0.01 µM
CC(C)CC(Oc1ccc(Cl)cc1)C1CCNC1 (stereo not shown) : ≤ 0.01 µM
Fc1cc(Cl)cc(Cl)c1O[C@H](C1CC1)[C@H]1CCNC1 : ≤ 0.01 µM
CC[C@H](Oc1ccc(Cl)cc1OC)[C@H]1CCNC1 : ≤ 0.01 µM
Cc1ccc(O[C@@H](C2CC2)[C@H]2CCNC2)c(Cl)c1 : ≤ 0.01 µM

Which measured IC50 value corresponds to CC[C@H](Oc1ccccc1Cl)[C@H]1CCNC1 ?
≤ 0.01 µM

Sample CC(C)C[C@@H](Oc1cccc(Cl)c1Cl)[C@H]1CCNC1 — what was its IC50?
≤ 0.01 µM

Fill blank: measured IC50 of the compound CC[C@H](Oc1ccc(Cl)c(F)c1Cl)[C@H]1CCNC1 is ____.
≤ 0.01 µM

What value of measured IC50 is listed for FC(F)(F)c1c(Cl)cccc1O[C@@H](C1CC1)[C@H]1CCNC1 ?
≤ 0.01 µM

----------
- tested-on: hNET (Homo sapiens, UniProt P23975)
- Sequence (P23975 whole entry): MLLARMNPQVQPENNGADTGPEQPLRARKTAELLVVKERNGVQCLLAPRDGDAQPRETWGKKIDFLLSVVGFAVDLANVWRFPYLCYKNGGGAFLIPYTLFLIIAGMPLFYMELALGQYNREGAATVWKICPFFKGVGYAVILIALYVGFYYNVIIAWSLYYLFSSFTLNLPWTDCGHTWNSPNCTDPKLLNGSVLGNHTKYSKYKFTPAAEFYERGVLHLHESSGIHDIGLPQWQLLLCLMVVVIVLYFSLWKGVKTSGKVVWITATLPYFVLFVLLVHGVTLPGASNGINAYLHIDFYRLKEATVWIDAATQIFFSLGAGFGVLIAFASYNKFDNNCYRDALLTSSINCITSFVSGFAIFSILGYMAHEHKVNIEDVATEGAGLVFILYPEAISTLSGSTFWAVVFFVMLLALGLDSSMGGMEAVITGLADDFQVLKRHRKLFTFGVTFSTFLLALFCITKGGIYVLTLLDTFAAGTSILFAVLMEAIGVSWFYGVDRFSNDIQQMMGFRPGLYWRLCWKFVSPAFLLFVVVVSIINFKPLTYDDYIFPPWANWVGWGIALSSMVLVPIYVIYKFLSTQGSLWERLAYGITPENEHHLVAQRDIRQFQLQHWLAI
- experimental-protocol: fluorescence-based norepinephrine reuptake inhibition assay (Tsuruda et al. 2010; data indicated by an asterisk)
- Format: cell-based
- Parameters: expressed in transfected cells; host or cells: HEK-293
- condition-details: norepinephrine reuptake inhibition, fluorescence-based assay (values with asterisk); read-out: NET pIC50 (converted)
metric: IC50

Here's what some known entries look like.
CCC[C@@H](Oc1ccc(Cl)cc1C)[C@@H]1CCNC1 : ≤ 0.1 µM
CCC[C@H](Oc1cc(F)cc(Cl)c1)[C@H]1CCNC1 : ≤ 0.01 µM
CC(C)C[C@H](Oc1cc(Cl)cc(Cl)c1)[C@@H]1CCNC1 : ≤ 0.01 µM
CC(C)C[C@@H](Oc1c(Cl)cccc1Cl)[C@H]1CCNC1 : ≤ 0.01 µM
Cc1ccc(OC(C2CCCC2)C2CCNC2)c(Cl)c1 (mixture of isomers) [Example 17] : ≤ 0.01 µM

Please give the measured IC50 for this compound: CCC[C@@H](Oc1c(F)ccc(OC)c1Cl)[C@H]1CCNC1
≤ 0.01 µM

Could you tell me which IC50 is on file for CC[C@@H](Oc1ccccc1Cl)[C@H]1CCNC1 ?
≤ 0.1 µM

I would be grateful if you could share the reported IC50 for Fc1ccc(O[C@@H](C2CC2)[C@H]2CCNC2)c(F)c1F .
≤ 0.01 µM

----------
pKi: −log10 of the molar value.
As an illustration, consider measured pKi for molecules on hNET (Homo sapiens).

A selection of reference data follows.
Clc1ccccc1O[C@@H](C1CC1)[C@H]1CCNC1 : ≥ 8.00
CC[C@H](Oc1ccc(Cl)cc1C(F)(F)F)[C@H]1CCNC1 : ≥ 8.00
Cc1c(Cl)cccc1O[C@@H](CC(C)C)[C@H]1CCNC1 : ≥ 8.00

I am curious: what pKi value has been reported for CCCC[C@@H](Oc1cccc(Cl)c1Cl)[C@H]1CCNC1 ?
≥ 8.00

Need pKi, item Cc1cccc(Cl)c1O[C@@H](C1CC1)[C@H]1CCNC1
≥ 8.00

----------
- tested-on: hNET (Homo sapiens, UniProt P23975)
- experimental-protocol: fluorescence-based norepinephrine reuptake inhibition assay (Tsuruda et al. 2010; data indicated by an asterisk)
- Format: cell-based
- Set-up: expressed in transfected cells; host or cells: HEK-293
- condition-details: norepinephrine reuptake inhibition, fluorescence-based assay (values with asterisk); read-out: NET pIC50 (converted)
metric: IC50

CC(C)[C@@H](Oc1c(F)cc(Cl)cc1F)[C@@H]1CCNC1 : ≤ 0.1 µM
CC[C@@H](Oc1ccc(Cl)cc1)[C@H]1CCNC1 : ≤ 0.1 µM
CC(C)[C@H](Oc1c(F)cc(Cl)cc1Cl)[C@@H]1CCNC1 : ≤ 0.316 µM
CC(C)[C@@H](Oc1ccc(Cl)c(Cl)c1F)[C@@H]1CCNC1 : ≤ 0.1 µM

Here is the next item to consider.
Value lookup for IC50; key = Fc1ccc(Cl)c(Cl)c1O[C@@H](C1CC1)[C@H]1CCNC1
≤ 0.01 µM

----------
- tested-on: hNET (Homo sapiens)
- experimental-protocol: fluorescence-based norepinephrine reuptake inhibition assay (Tsuruda et al. 2010; data indicated by an asterisk)
- Assay type: cell-based
- Design: expressed in transfected cells; host or cells: HEK-293
- condition-details: norepinephrine reuptake inhibition, fluorescence-based assay (values with asterisk); read-out: NET pIC50 (converted)
Each item that follows carries a reported IC50.

Use the examples below as a reference point.
CC(C)C[C@H](Oc1c(F)ccc(Cl)c1F)[C@H]1CCNC1 : ≤ 10 nM
CC(C)[C@H](Oc1cc(Cl)cc(Cl)c1)[C@@H]1CCNC1 : ≤ 100 nM
CCOc1cc(Cl)ccc1O[C@H](C1CC1)[C@H]1CCNC1 : ≤ 100 nM
CC(C)C[C@H](Oc1c(Cl)cccc1Cl)[C@@H]1CCNC1 : ≤ 100 nM

Entry Clc1ccc(OC(C2CCCC2)C2CCNC2)cc1 (stereo not shown) , system hNET (Homo sapiens): what IC50 was measured?
≤ 100 nM

Notebook: pull reported IC50 for hNET (Homo sapiens), entry Clc1cc(Cl)cc(OC(C2CCCC2)C2CCNC2)c1 (stereo not shown)
≤ 10 nM

Give IC50 (hNET (Homo sapiens)) of the following compound: CC(C)C[C@H](Oc1c(Cl)c(F)cc(F)c1Cl)[C@H]1CCNC1
≤ 10 nM

Enter reported IC50 observed with hNET (Homo sapiens) for CC(C)[C@H](Oc1cccc(Cl)c1C(F)(F)F)[C@H]1CCNC1
≤ 10 nM

Short answer please: IC50, hNET (Homo sapiens), entry CCC[C@H](Oc1c(F)cc(Cl)cc1F)[C@H]1CCNC1
≤ 10 nM

Short answer please: IC50, hNET (Homo sapiens), entry Fc1cc(Cl)cc(O[C@@H](C2CC2)[C@H]2CCNC2)c1Cl
≤ 100 nM

Item Cc1cc(O[C@H](CC(C)C)[C@H]2CCNC2)ccc1Cl with hNET (Homo sapiens) - IC50?
≤ 100 nM

Record CC(C)[C@@H](Oc1c(F)cc(Cl)cc1Cl)[C@H]1CCNC1 : what is its IC50 with hNET (Homo sapiens)?
≤ 100 nM

Tell me reported IC50 for Clc1cccc(Cl)c1OC(C1CCCC1)C1CCNC1 (stereo not shown) , tested with hNET (Homo sapiens).
≤ 10 nM

State its IC50 on hNET (Homo sapiens): CC(C)[C@@H](Oc1ccc(Cl)c(Cl)c1F)[C@H]1CCNC1
≤ 100 nM

----------
- tested-on: hSERT (Homo sapiens, UniProt P31645)
- Sequence (P31645 whole entry): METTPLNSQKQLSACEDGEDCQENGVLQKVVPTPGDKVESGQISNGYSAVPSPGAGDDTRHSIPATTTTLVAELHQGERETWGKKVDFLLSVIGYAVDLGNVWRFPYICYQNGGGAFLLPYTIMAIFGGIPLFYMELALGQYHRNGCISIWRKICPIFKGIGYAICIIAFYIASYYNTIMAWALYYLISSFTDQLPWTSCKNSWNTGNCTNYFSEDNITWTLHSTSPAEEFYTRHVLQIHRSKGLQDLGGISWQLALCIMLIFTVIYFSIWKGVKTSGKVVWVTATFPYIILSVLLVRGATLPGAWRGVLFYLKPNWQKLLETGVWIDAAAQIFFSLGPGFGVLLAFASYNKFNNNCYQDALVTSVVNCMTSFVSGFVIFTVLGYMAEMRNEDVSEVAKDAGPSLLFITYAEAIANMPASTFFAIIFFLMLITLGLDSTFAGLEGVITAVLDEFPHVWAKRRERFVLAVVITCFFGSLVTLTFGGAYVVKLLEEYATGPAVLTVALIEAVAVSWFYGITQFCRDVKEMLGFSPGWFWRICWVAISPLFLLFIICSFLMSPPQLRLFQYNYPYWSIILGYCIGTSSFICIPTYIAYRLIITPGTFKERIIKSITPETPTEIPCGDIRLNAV
- experimental-protocol: fluorescence-based serotonin reuptake inhibition assay (Tsuruda et al. 2010; data indicated by an asterisk)
- Assay type: cell-based
- Parameters: expressed in transfected cells; host or cells: HEK-293
- condition-details: fluorescence-based assay (values with asterisk), read-out: SERT pIC50 (converted)
In this section, each of the molecules is paired with its reported IC50.

Some molecules with recorded IC50:
CCC(CC)[C@@H](Oc1cccc(Cl)c1Cl)[C@H]1CCNC1 : ≤ 10 nM
Clc1cccc(O[C@H](C2CC2)[C@H]2CCNC2)c1 : ≤ 100 nM
c1ccc2c(O[C@@H](C3CC3)[C@H]3CCNC3)cccc2c1 : ≤ 10 nM
CC(C)C[C@H](Oc1c(F)ccc(Cl)c1Cl)[C@H]1CCNC1 : ≤ 10 nM
CCC[C@H](Oc1cccc(Cl)c1F)[C@H]1CCNC1 : ≤ 100 nM
Fc1ccc(O[C@@H](C2CC2)[C@H]2CCNC2)c(F)c1F : ≤ 10 nM
Cc1cc(O[C@H](C2CC2)[C@H]2CCNC2)ccc1Cl : ≤ 10 nM
Fc1ccc(O[C@@H](C2CC2)[C@H]2CCNC2)c(F)c1Cl : ≤ 10 nM

Could you now look at the following molecule, please?
Param readout = IC50; param system = hSERT (Homo sapiens, UniProt P31645); param query = CC(C)C[C@H](Oc1cccc(F)c1Cl)[C@@H]1CCNC1 ; response: value
≤ 10 nM
